Listed here: items and their measured MIC (anti-bacterial activity).
test system: methicillin-sensitive Staphylococcus epidermidis (MSSE); experiment: MIC, two-fold agar dilution (CLSI), clinical isolates; format: cell-based; details: strain MSSE 14-2
Number in µg/mL, nothing else.

Query: Report MIC (anti-bacterial activity) for CCCC[C@H](CN(O)C=O)C(=O)N1CC2(CC2)C[C@H]1c1nc2ccccc2[nH]1 please.
Result: 2

Query: And what about the compound CCCC[C@H](CN(O)C=O)C(=O)N1CC2(CC2)C[C@H]1c1nc(-c2cccnc2)no1 ?
Result: 0.5

Query: And what about the compound CCCC[C@H](CN(O)C=O)C(=O)N1CC2(CC2)C[C@H]1C(=O)Nc1nccc(-c2cccnc2)n1 ?
Result: 0.5
